This collection of values is drawn from PubChem BioAssay (NCI).

# Tested on: SW-620 colon
# protocol-summary: NCI tumour cell line growth inhibition, 48 h
Reported TGI values follow for various compounds
All answers are understood in µM, so give the number only.

Consider the compound O=C(/C=C/c1ccccc1)c1cccc2ccccc12 and give its recorded TGI.
6

Consider the compound Cc1ccccc1NC(=O)Cc1nc2ccccc2s1 and give its recorded TGI.
36

* * *

# Tested on: NCI-H23 lung
# protocol-summary: NCI tumour cell line growth inhibition, 48 h; in the data active = GI50 below about 0.43 µM; inactive = the rest
Parameter call: string, one of 1 (active), -1 (inactive)

>>> df
                                   compound  category
0  CCc1nc(C)cn1C(=O)OCc1nc2nc(Cl)nc(N3CCOCC3)c2[nH]1        -1
1  COc1cccc2c1C(=O)c1c(O)c3c(c(O)c1C2=O)C[C@@](O)(C(=O)CO)CC3OC1CC(N)C(OC2CCCCO2)C(C)O1 (some centres undefined)         1

Entry O=C(/C=C/c1ccccc1)c1cccc2ccccc12 : call = ?
-1

Entry CN(C)c1ccc(/C=C(\C#N)c2cc3ccccc3[nH]2)cc1 : call = ?
-1

Entry CC1=CC(=O)N(c2cccc3c(N4C(=O)C=C(C)C4=O)cccc23)C1=O : call = ?
-1

Entry CC[C@@H](C)/C=C(C)/C=C/C(=O)c1c(O)c(-c2ccc(OC(=O)[C@@]34CC[C@@](C)(C(=O)O3)C4(C)C)cc2)cn(O)c1=O : call = ?
-1

Entry O=C(Nc1nc(-c2ccc(Cl)cc2)cs1)c1cc(O)c(O)c(O)c1 : call = ?
-1

Entry Nc1[nH]nc2nc(-c3cc(Cl)ccc3Cl)cc(-c3ccc(F)cc3)c12 : call = ?
-1

Entry CCN(CC)CCNC(=O)c1cccc2c1-c1ccccc1C2=O : call = ?
-1
